Data origin: patent US11707462B2

So I've got a bunch of compounds here, and I need their IC50 values.
system.tested: Full-length human Chk1 protein (Homo sapiens)
Sequence (O14757 1-476): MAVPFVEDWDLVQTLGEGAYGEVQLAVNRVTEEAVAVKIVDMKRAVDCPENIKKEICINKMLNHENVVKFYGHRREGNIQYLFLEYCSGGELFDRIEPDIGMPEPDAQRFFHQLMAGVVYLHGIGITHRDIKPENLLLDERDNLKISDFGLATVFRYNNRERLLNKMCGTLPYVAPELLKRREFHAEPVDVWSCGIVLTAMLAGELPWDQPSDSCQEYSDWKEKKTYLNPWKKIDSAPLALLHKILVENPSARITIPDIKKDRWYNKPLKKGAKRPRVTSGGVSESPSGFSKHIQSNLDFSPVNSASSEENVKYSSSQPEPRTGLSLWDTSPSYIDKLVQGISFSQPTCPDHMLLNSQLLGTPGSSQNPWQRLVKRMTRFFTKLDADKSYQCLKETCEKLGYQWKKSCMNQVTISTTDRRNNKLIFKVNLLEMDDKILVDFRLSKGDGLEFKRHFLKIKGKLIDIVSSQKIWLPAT

Item: `N#Cc1cnc(Nc2cc(-c3c(F)cccc3O[C@H]3CC[C@H]3N)[nH]n2)cn1` | IC50: > 1000 nM

Item: COc1cccc(O[C@@H]2CCC[C@H](N)C2)c1-c1cc(Nc2cnc(C#N)cn2)n[nH]1 (relative stereo) | IC50: > 1000 nM

Item: `COc1ccc(Cl)c(O[C@@H]2CC[C@H](N)C2)c1-c1cc(Nc2cnc(C#N)cn2)n[nH]1` | IC50: 100 to 500 nM

Item: `COc1cccc(O[C@H]2CC[C@H](N)CC2)c1-c1cc(Nc2cnc(C#N)cn2)n[nH]1` | IC50: ≤ 10 nM

Item: `CN[C@@H]1CC[C@@H](Oc2cccc(F)c2-c2cc(Nc3cnc(C#N)cn3)n[nH]2)C1` | IC50: 10 to 100 nM

Item: `COc1cccc(OC[C@H]2C[C@@H](N)C2)c1-c1cc(Nc2cnc(C#N)cn2)n[nH]1` | IC50: > 1000 nM

Item: `N#Cc1cnc(Nc2cc(-c3ccccc3O[C@H]3C[C@@H](N)C3)[nH]n2)cn1` | IC50: 100 to 500 nM

Item: `N#Cc1cnc(Nc2cc(-c3c(O[C@@H]4CC[C@@H](N)C4)ccc(Cl)c3F)[nH]n2)cn1` | IC50: ≤ 10 nM

Item: `CC(C)Oc1cccc(O[C@H]2CC[C@H](N)CC2)c1-c1cc(Nc2cnc(C#N)cn2)n[nH]1` | IC50: 100 to 500 nM

Item: `COc1cccc(O[C@H]2CC[C@@H](N)C2)c1-c1cc(Nc2cnc(C#N)cn2)n[nH]1` | IC50: 10 to 100 nM

Item: N#Cc1cnc(Nc2cc(-c3ccccc3O[C@@H]3CC[C@@H](N)C3)[nH]n2)cn1 (stereo in doubt) [Example 1-37] | IC50: 100 to 500 nM

Item: N#Cc1cnc(Nc2cc(-c3ccccc3O[C@@H]3CC[C@@H](N)C3)[nH]n2)cn1 [Example 1-53] | IC50: ≤ 10 nM

Item: `COc1c(Cl)ccc(O[C@@H]2CC[C@H](N)C2)c1-c1cc(Nc2cnc(C#N)cn2)n[nH]1` | IC50: 10 to 100 nM

Item: `Cc1ccc(O[C@H]2CC[C@H](N)CC2)c(-c2cc(Nc3cnc(C#N)cn3)n[nH]2)n1` | IC50: ≤ 10 nM

Item: `N#Cc1cnc(Nc2cc(-c3ccccc3O[C@H]3C[C@H](N)C3)[nH]n2)cn1` | IC50: 10 to 100 nM

###

Test system: p-CHK1 (Ser345)
assay.details: AlphaLISA SureFire Ultra p-CHK1 (Ser345) cellular assay in HT29 cells
Format: cell-based
condition.details: Homo sapiens, HT-29, 16 h at 37° C.
endpoint.label: IC50

Item: `Cc1cc(F)c(-c2cc(Nc3cnc(C#N)cn3)n[nH]2)c(O[C@@H]2CC[C@@H](N)C2)c1` | IC50: ≤ 50 nM

Item: `N#Cc1cnc(Nc2cc(-c3ncccc3O[C@H]3CC[C@@H](N)C3)[nH]n2)cn1` | IC50: 100 to 500 nM

Item: `Cc1ccc(O[C@H]2CC[C@H](N)CC2)c(-c2cc(Nc3cnc(C#N)cn3)n[nH]2)n1` | IC50: 100 to 500 nM

###

So I've got a bunch of molecules here, and I need their IC50 values.
Tested on: p-CHK1 (Ser345)
assay.details: AlphaLISA SureFire Ultra p-CHK1 (Ser345) cellular assay in HT29 cells
Assay type: cell-based
condition.details: Homo sapiens, HT-29, 16 h at 37° C.
Method: Example B: AlphaLisa Cellular Assay Compound activity in cells was measured using an AlphaLISA® SureFire® Ultra™ p-CHK1 (Ser345) assay (Perkin Elmer, catalog no. ALSU-PCHK1-A10K). HT29 cells were cultured in McCoy 5A medium with 10% FBS and 1% penicillin-streptomycin and seeded to 96-well plates (Corning, catalog no. 3599). […] AlphaLisa signal was read on an EnVision multimode plate reader (Perkin Elmer). […]

p-CHK1 (Ser345) assay, molecule `N#Cc1cnc(Nc2cc(-c3c(O[C@@H]4CC[C@H](N)C4)ccc(F)c3F)[nH]n2)cn1` , recorded IC50 = 100 to 500 nM

p-CHK1 (Ser345) assay, molecule `COc1cccc(O[C@@H]2CC[C@@H](N)C2)c1-c1cc(Nc2cnc(C#N)cn2)n[nH]1` , recorded IC50 = ≤ 50 nM

p-CHK1 (Ser345) assay, molecule `Cc1ccc(O[C@@H]2CC[C@H](N)C2)c(-c2cc(Nc3cnc(C#N)cn3)n[nH]2)n1` , recorded IC50 = 50 to 100 nM

p-CHK1 (Ser345) assay, molecule `CN[C@H]1C[C@H](Oc2ccc(C)nc2-c2cc(Nc3cnc(C#N)cn3)n[nH]2)C1` , recorded IC50 = 100 to 500 nM

###

So I've got a bunch of compounds here, and I need their IC50 values.
Test system: p-CHK1 (Ser345)
assay.details: AlphaLISA SureFire Ultra p-CHK1 (Ser345) cellular assay in HT29 cells
Assay type: cell-based
condition.details: Homo sapiens, HT-29, 16 h at 37° C.

Item: `COc1cc(Cl)cc(O[C@H]2CC[C@H](N)CC2)c1-c1cc(Nc2cnc(C#N)cn2)n[nH]1` | IC50: 50 to 100 nM

Item: `CN[C@H]1C[C@H](Oc2ccccc2-c2cc(Nc3cnc(C#N)cn3)n[nH]2)C1` | IC50: 100 to 500 nM

Item: `N#Cc1cnc(Nc2cc(-c3c(F)cccc3O[C@@H]3CCCC[C@H](N)C3)[nH]n2)cn1` | IC50: ≤ 50 nM

Item: `COc1cccc(O[C@@H]2CCCC[C@H](N)C2)c1-c1cc(Nc2cnc(C#N)cn2)n[nH]1` | IC50: ≤ 50 nM

Item: `N#Cc1cnc(Nc2cc(-c3c(F)cccc3O[C@@H]3CC[C@H]3N)[nH]n2)cn1` | IC50: 50 to 100 nM

###

pIC50: −log10 of the molar value.
endpoint.label: pIC50

UniProt O14757 assay, compound Cc1cc(Cl)c(O[C@@H]2CC[C@H](N)C2)c(-c2cc(Nc3cnc(C#N)cn3)n[nH]2)n1 [Example 3-53] , recorded pIC50 = < 6.00

UniProt O14757 assay, compound N#Cc1cnc(Nc2cc(-c3ncccc3O[C@H]3CC[C@@H](N)C3)[nH]n2)cn1 [Example 3-42] , recorded pIC50 = 7.00 to 8.00

UniProt O14757 assay, compound COc1cccc(OCC2CC2N)c1-c1cc(Nc2cnc(C#N)cn2)n[nH]1 (centres unmarked) [Example 3-55] , recorded pIC50 = ≥ 8.00

UniProt O14757 assay, compound N#Cc1cnc(Nc2cc(-c3c(F)cccc3O[C@@H]3CCCC[C@H](N)C3)[nH]n2)cn1 [Example 3-35] , recorded pIC50 = ≥ 8.00

UniProt O14757 assay, compound CN[C@@H]1CC[C@@H](Oc2cc(F)c(C)cc2-c2cc(Nc3cnc(C#N)cn3)n[nH]2)C1 [Example 3-21] , recorded pIC50 = ≥ 8.00

UniProt O14757 assay, compound COc1cccc(O[C@@H]2CC[C@@H](N(C)C)C2)c1-c1cc(Nc2cnc(C#N)cn2)n[nH]1 [Example 1-48] , recorded pIC50 = ≥ 8.00

UniProt O14757 assay, compound CCOc1cccc(O[C@@H]2CC[C@H](N)C2)c1-c1cc(Nc2cnc(C#N)cn2)n[nH]1 [Example 1-23] , recorded pIC50 = 7.00 to 8.00

UniProt O14757 assay, compound COc1cccc(O[C@H]2CC3(C[C@@H](N)C3)C2)c1-c1cc(Nc2cnc(C#N)cn2)n[nH]1 (some centres unmarked) [Example 3-10] , recorded pIC50 = ≥ 8.00

UniProt O14757 assay, compound COc1c(F)ccc(O[C@H]2CC[C@H](N)CC2)c1-c1cc(Nc2cnc(C#N)cn2)n[nH]1 [Example 1-20] , recorded pIC50 = 7.00 to 8.00

UniProt O14757 assay, compound CN[C@H]1C[C@H](Oc2cccc(F)c2-c2cc(Nc3cnc(C#N)cn3)n[nH]2)C1 [Example 2-5] , recorded pIC50 = 7.00 to 8.00

UniProt O14757 assay, compound CN[C@@H]1CC[C@@H](Oc2ccccc2-c2cc(Nc3cnc(C#N)cn3)n[nH]2)C1 [Example 1-42] , recorded pIC50 = 7.00 to 8.00

UniProt O14757 assay, compound Cc1nc(-c2cc(Nc3cnc(C#N)cn3)n[nH]2)c(O[C@@H]2CC[C@H](N)C2)cc1Cl [Example 3-52] , recorded pIC50 = 6.30 to 7.00

UniProt O14757 assay, compound COc1cccc(O[C@@H]2CC[C@H](N(C)C)C2)c1-c1cc(Nc2cnc(C#N)cn2)n[nH]1 [Example 1-49] , recorded pIC50 = ≥ 8.00

UniProt O14757 assay, compound COc1cccc(O[C@@H]2CC[C@H](N)C2)c1-c1cc(Nc2cnc(C#N)cn2)n[nH]1 [Example 1-7] , recorded pIC50 = ≥ 8.00

UniProt O14757 assay, compound N#Cc1cnc(Nc2cc(-c3c(OCC(F)(F)F)cccc3O[C@@H]3CC[C@H](N)C3)[nH]n2)cn1 [Example 1-25] , recorded pIC50 = 6.00 to 6.30

UniProt O14757 assay, compound COc1c(C)ccc(O[C@@H]2CC[C@H](N)C2)c1-c1cc(Nc2cnc(C#N)cn2)n[nH]1 [Example 4-1] , recorded pIC50 = 6.30 to 7.00

UniProt O14757 assay, compound CC(C)c1ccc(O[C@@H]2CC[C@H](N)C2)c(-c2cc(Nc3cnc(C#N)cn3)n[nH]2)n1 [Example 3-46] , recorded pIC50 = ≥ 8.00

UniProt O14757 assay, compound N#Cc1cnc(Nc2cc(-c3ccccc3O[C@H]3CC[C@@H](N)CC3)[nH]n2)cn1 [Example 1-50] , recorded pIC50 = 6.30 to 7.00

UniProt O14757 assay, compound COc1cccc(O[C@H]2CCCC[C@H](N)C2)c1-c1cc(Nc2cnc(C#N)cn2)n[nH]1 [Example 3-7] , recorded pIC50 = ≥ 8.00

UniProt O14757 assay, compound N#Cc1cnc(Nc2cc(-c3c(F)cc(Cl)cc3O[C@@H]3CC[C@H](N)C3)[nH]n2)cn1 [Example 3-24] , recorded pIC50 = 7.00 to 8.00
